Consider the following molecules; for each one, report its half-life.
Assay: Single dose pharmacokinetics (SDPK) study in male C57BL/6J mice
Format: in vivo
Conditions: male, C57BL/6J, plasma; mouse, IV 1 mg/kg; read-out: T½ (converted)
Give the value, in units of min, as a plain number.

Sample COc1cc(F)ccc1-n1ncc2c(N3C[C@@H]4C[C@H]3C(=O)N(C)CCCc3c5c(cccc5nn3C)-c3ccnc(n3)N4)ncnc21 — what was its half-life?
48

Sample CN1CCCc2c3c(cccc3nn2C)-c2ccnc(n2)O[C@H]2C[C@@H](C1=O)N(c1ncnc3c1cnn3-c1ccc(F)cc1F)C2 — what was its half-life?
60

* * *

Assay: Single dose pharmacokinetics (SDPK) study in male C57BL/6J mice
Assay type: in vivo
Conditions: male, C57BL/6J, plasma; mouse, IV 1 mg/kg
Consider the following compounds; for each one, report its clearance.
Give the value, in units of mL/min/kg, as a plain number.

Sample CN1CCCc2c3c(cccc3nn2C)-c2ccnc(n2)O[C@H]2C[C@@H](C1=O)N(c1ncnc3c1cnn3-c1ccc(F)cc1F)C2 [Example 11] — what was its clearance?
11.1

Sample COc1cc(F)ccc1-n1ncc2c(N3C[C@@H]4C[C@H]3C(=O)N(C)CCCc3c5c(cccc5nn3C)-c3ccnc(n3)N4)ncnc21 [Example 6] — what was its clearance?
14.5
